- measurement_target: Bcl-2 protein (Recombinant Human Bcl-2 Protein) (Homo sapiens, UniProt P10415)
- Construct: purchased Novus NBP2-34889
- Sequence (P10415 whole entry): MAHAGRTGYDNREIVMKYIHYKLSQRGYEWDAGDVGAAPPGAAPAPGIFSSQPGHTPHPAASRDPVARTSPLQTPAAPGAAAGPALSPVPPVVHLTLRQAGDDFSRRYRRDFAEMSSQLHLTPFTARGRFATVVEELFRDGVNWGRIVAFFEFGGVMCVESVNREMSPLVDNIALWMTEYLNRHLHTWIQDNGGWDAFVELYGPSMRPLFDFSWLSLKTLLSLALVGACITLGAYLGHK
- assay_protocol: Binding evaluation of mixture library compounds to Bcl-2 using AS-MS (affinity selection mass spectrometry)
- stated_conditions: second value in parentheses; (A−C)/B×100; 1200-compound mixture, Bcl-2 20 μM
// boundary case: ASMS ratio (%) equal to 30% maps to No; strictly smaller maps to Yes

Use the examples below as a reference point.
CCOc1cncc(-c2ccccc2CN2CCN(c3ccc(C(=O)NS(=O)(=O)c4ccc(NCCSc5ccccc5)c([N+](=O)[O-])c4)cc3)CC2)c1 = Yes
CCOc1cncc(-c2ccc(CN3CCN(c4ccc(C(=O)NS(=O)(=O)c5ccc(NCCSc6ccccc6)c([N+](=O)[O-])c5)cc4)CC3)cc2C)c1 = No

Next:
Prompt line: Record CCOc1cncc(-c2ccccc2CCC(=O)N2CCN(c3ccc(C(=O)NS(=O)(=O)c4ccc(NCCSc5ccccc5)c([N+](=O)[O-])c4)nn3)CC2)c1 : is its ASMS ratio (%) strictly below 30%?
Response line: Yes
